- Test system: Staphylococcus aureus
- measurement_description: Antibacterial activity against patient-derived methicillin-resistant Staphylococcus aureus 7386 after 18 to 20 hrs by microbroth dilution method
- Format: functional
reported_property: MIC

# molecule, reported_property, result
rows = [
    ("O=C(O)c1cn(C2CC2)c2cc(N3CCNCC3)c(F)cc2c1=O [CIPROFLOXACIN]", "MIC", "> 4 µg/mL"),
]

Give its MIC value. Item: C[C@@H](O)[C@H]1C(=O)N2C(C(=O)O)=C(S[C@@H]3CN[C@H](C(=O)N(C)C)C3)[C@H](C)[C@H]12 [MEROPENEM]
> 32 µg/mL

Fill in the blank: the reported MIC of NC[C@H]1O[C@H](O[C@H]2[C@H](O)[C@@H](O[C@H]3O[C@H](CO)[C@@H](O)[C@H](N)[C@H]3O)[C@H](N)C[C@@H]2N)[C@H](N)C[C@@H]1O [TOBRAMYCIN] is ____.
> 32 µg/mL

Which MIC value belongs to C#CCN(c1cccc(OC)c1)S(=O)(=O)c1ccc([N+](=O)[O-])cc1[N+](=O)[O-] ?
2 µg/mL

----------
- Tested on: Staphylococcus aureus
- measurement_description: Antibacterial activity against patient-derived methicillin-resistant Staphylococcus aureus K1 after 18 to 20 hrs by microbroth dilution method
- Format: functional
reported_property: MIC
Form field: result (number plus unit)

Entry O=C(O)c1cn(C2CC2)c2cc(N3CCNCC3)c(F)cc2c1=O [CIPROFLOXACIN] has what MIC?
0.5 µg/mL

Name the recorded MIC for C[C@@H](O)[C@H]1C(=O)N2C(C(=O)O)=C(S[C@@H]3CN[C@H](C(=O)N(C)C)C3)[C@H](C)[C@H]12 [MEROPENEM] .
0.5 µg/mL

Entry under review: NC[C@H]1O[C@H](O[C@H]2[C@H](O)[C@@H](O[C@H]3O[C@H](CO)[C@@H](O)[C@H](N)[C@H]3O)[C@H](N)C[C@@H]2N)[C@H](N)C[C@@H]1O [TOBRAMYCIN] . Reported MIC?
8 µg/mL

// lookup MIC for C#CCN(c1cccc(OC)c1)S(=O)(=O)c1ccc([N+](=O)[O-])cc1[N+](=O)[O-]
4 µg/mL

----------
- measurement_description: Cytotoxicity against human A549 cells after 72 hrs by MTT assay
- Type: cell-based
reported_property: GI50 at 72 h (µM)
Write it as a number; the unit µM goes unstated.

What measured GI50 at 72 h goes with C#CCN(c1cccc(OC)c1)S(=O)(=O)c1ccc([N+](=O)[O-])cc1[N+](=O)[O-] ?
27

----------
Listed next: entries and their corresponding MIC.
- Tested on: Staphylococcus aureus
- measurement_description: Antibacterial activity against methicillin-sensitive Staphylococcus aureus after 18 to 20 hrs by microbroth dilution method
- Type: functional

Solved cases (6 shown):
# query_smiles, assay_system, result
data = [
    ("N#Cc1ccc(NS(=O)(=O)c2ccc([N+](=O)[O-])cc2[N+](=O)[O-])cc1", "Staphylococcus aureus", "> 16 µg/mL"),
    ("COc1ccccc1N(CCCN(Cc1ccccc1)S(=O)(=O)c1ccc([N+](=O)[O-])cc1[N+](=O)[O-])S(=O)(=O)c1ccc([N+](=O)[O-])cc1[N+](=O)[O-]", "Staphylococcus aureus", "> 32 µg/mL"),
    ("COc1ccc(CNS(=O)(=O)c2ccc([N+](=O)[O-])cc2[N+](=O)[O-])cc1", "Staphylococcus aureus", "> 16 µg/mL"),
    ("COc1ccc(CN(CCCN(Cc2ccccc2)S(=O)(=O)c2ccc([N+](=O)[O-])cc2[N+](=O)[O-])S(=O)(=O)c2ccc([N+](=O)[O-])cc2[N+](=O)[O-])cc1", "Staphylococcus aureus", "> 32 µg/mL"),
    ("O=[N+]([O-])c1ccc(S(=O)(=O)N(CCCN(c2ccccc2)S(=O)(=O)c2ccc([N+](=O)[O-])cc2[N+](=O)[O-])Cc2ccccc2)c([N+](=O)[O-])c1", "Staphylococcus aureus", "> 16 µg/mL"),
    ("COc1ccc(CN(CCCN(Cc2ccccc2)S(=O)(=O)c2ccc([N+](=O)[O-])cc2[N+](=O)[O-])S(=O)(=O)c2ccc([N+](=O)[O-])cc2[N+](=O)[O-])c(OC)c1", "Staphylococcus aureus", "> 16 µg/mL"),
]

What does the data say about its MIC? Entry: COc1ccc(N(CCCN(Cc2ccccc2)S(=O)(=O)c2ccc([N+](=O)[O-])cc2[N+](=O)[O-])S(=O)(=O)c2ccc([N+](=O)[O-])cc2[N+](=O)[O-])cc1
> 32 µg/mL
